Species: Rattus norvegicus
Experiment: Duration of action on ACE in rat
Type: functional
endpointName: Duration

Study these solved cases before continuing.
compound=C[C@H](N[C@@H](CCc1ccccc1)C(=O)O)C(=O)N(CC(=O)O)CC(=O)Nc1cc(C(=O)O)cc(S(N)(=O)=O)c1Cl.Cl endpointname=Duration assayvalue="3 h"
compound=Cl.NS(=O)(=O)c1cc(C(=O)NCCCC[C@H](N[C@@H](CCc2ccccc2)C(=O)O)C(=O)N(CC(=O)O)C2Cc3ccccc3C2)ccc1Cl endpointname=Duration assayvalue="3 h"
compound="C[C@H](N[C@@H](CCc1ccccc1)C(=O)O)C(=O)N(CC(=O)O)CC1Nc2cc(Cl)c(S(N)(=O)=O)cc2S(=O)(=O)N1 (some centres undefined)" endpointname=Duration assayvalue=">3 h"

Quick note, Duration for Cl.NCCCC[C@H](N[C@@H](CCc1ccccc1)C(=O)O)C(=O)N(CC(=O)O)CC1Nc2cc(Cl)c(S(N)(=O)=O)cc2S(=O)(=O)N1 (some centres undefined) landed at 3 h
